measurement notes: Plasma pharmacokinetics of minocycline, twice-daily ascending dose (MAD) phase, loading dose then BID dosing for 7 days
Set-up: species or system human (healthy adult subjects)
experimental context: human, in vivo, iv, 200 mg, Cmax
experimental endpoint: Cmax

- compound: "CN(C)c1ccc(O)c2c1C[C@H]1C[C@H]3[C@H](N(C)C)C(O)=C(C(N)=O)C(=O)[C@@]3(O)C(O)=C1C2=O [minocycline]"
  result: "4590 ng/mL"

---

measurement notes: Plasma pharmacokinetics of minocycline, twice-daily ascending dose (MAD) phase, loading dose then BID dosing for 7 days
Design: species or system human (healthy adult subjects)
experimental context: human, in vivo, 300 mg, single dose 500 mg, BID dosing 300 mg, mean, N=7
experimental endpoint: half-life (h)

- chemical smiles: "CN(C)c1ccc(O)c2c1C[C@H]1C[C@H]3[C@H](N(C)C)C(O)=C(C(N)=O)C(=O)[C@@]3(O)C(O)=C1C2=O"
  experimental endpoint: "half-life"
  result unit: "h"
  readout number: 18.1
